Reference for the values: PubChem BioAssay (NCI)

- Tested on: DMS 273 small cell lung
- experiment_summary: NCI tumour cell line growth inhibition, 48 h
measured_property: TGI

{"columns": ["compound", "measured_property", "result"],
 "data": [
  ["O=c1c2cc(Br)ccc2[nH]c(=S)n1-c1ccccc1", "TGI", "> 100 µM"],
  ["COC(=O)NN/C=C(\\C=Nc1ccccc1)[N+](=O)[O-]", "TGI", "> 100 µM"],
  ["CN=c1ss/c(=N\\C(=S)N(C)C)n1C1CCCCC1", "TGI", "> 31.6 µM"],
  ["CCOC(=O)C/C(N)=C(\\C#N)C(=O)OCC", "TGI", "> 100 µM"],
  ["O=S1c2ccccc2N=C(c2ccc3ccccc3c2)CC1c1ccccc1F (stereo not drawn)", "TGI", "> 100 µM"],
  ["CC(C)(C)c1cc(Oc2ccc(C#N)c(C#N)c2)cc(C(C)(C)C)c1", "TGI", "27.1 µM"],
  ["CC(=O)n1cc(CC(C)O)c(=O)[nH]c1=O (stereo not drawn)", "TGI", "> 100 µM"],
  ["C=C(C)C1Cc2c(cc(OC)c3c(=O)c4ccccc4n(C)c23)O1 (stereo not drawn)", "TGI", "> 100 µM"]
]}
